src = PubChem BioAssay AID1963971

test system: 953936-095-R-J2-PDC spheroids with HUVEC/MSC, viability; assay: Anticancer human tumor 953936-095-R-J2-PDC patient-derived cervical squamous cell carcinoma cell line growth inhibition [PI3K]; conditions: second compound 1 µM; first compound 0.00316 µM; hits give low values;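 note: spheroids exposed to compounds for seven days before read-out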
Listing of recorded viability, T/C by entry.

{"columns": ["molecule", "study-target", "viability, T/C"],
 "data": [
  ["Cn1ncnc1[C@H]1c2n[nH]c(=O)c3cc(F)cc(c23)N[C@@H]1c1ccc(F)cc1 + COc1c(OCCCN2CCOCC2)ccc2c3n(c(=NC(=O)c4cnc(N)nc4)nc12)CCN3", "953936-095-R-J2-PDC spheroids with HUVEC/MSC, viability", "1.91%"],
  ["CCN1CCN(Cc2ccc(Nc3ncc(F)c(-c4cc(F)c5nc(C)n(C(C)C)c5c4)n3)nc2)CC1 + Cc1nc(NC(=O)N2CCCC2C(N)=O)sc1-c1ccnc(C(C)(C)C(F)(F)F)c1", "953936-095-R-J2-PDC spheroids with HUVEC/MSC, viability", "47.6%"],
  ["CC(=O)c1c(C)c2cnc(Nc3ccc(N4CCNCC4)cn3)nc2n(C2CCCC2)c1=O + COc1c(OCCCN2CCOCC2)ccc2c3n(c(=NC(=O)c4cnc(N)nc4)nc12)CCN3", "953936-095-R-J2-PDC spheroids with HUVEC/MSC, viability", "1.47%"],
  ["CC(C)n1nc(-c2ccc3oc(N)nc3c2)c2c(N)ncnc21 + CC(Nc1ccc2c(c1)OCCn1cc(N3C(=O)OCC3C(F)F)nc1-2)C(N)=O", "953936-095-R-J2-PDC spheroids with HUVEC/MSC, viability", "18.3%"],
  ["CC(C)n1nc(-c2ccc3oc(N)nc3c2)c2c(N)ncnc21 + COc1c(OCCCN2CCOCC2)ccc2c3n(c(=NC(=O)c4cnc(N)nc4)nc12)CCN3", "953936-095-R-J2-PDC spheroids with HUVEC/MSC, viability", "1.21%"],
  ["Cn1ncnc1[C@H]1c2n[nH]c(=O)c3cc(F)cc(c23)N[C@@H]1c1ccc(F)cc1 + Cc1nc(NC(=O)N2CCCC2C(N)=O)sc1-c1ccnc(C(C)(C)C(F)(F)F)c1", "953936-095-R-J2-PDC spheroids with HUVEC/MSC, viability", "44.9%"],
  ["Cn1ncnc1[C@H]1c2n[nH]c(=O)c3cc(F)cc(c23)N[C@@H]1c1ccc(F)cc1 + CC(Nc1ccc2c(c1)OCCn1cc(N3C(=O)OCC3C(F)F)nc1-2)C(N)=O", "953936-095-R-J2-PDC spheroids with HUVEC/MSC, viability", "22.2%"],
  ["CC(=O)c1c(C)c2cnc(Nc3ccc(N4CCNCC4)cn3)nc2n(C2CCCC2)c1=O + CC(Nc1ccc2c(c1)OCCn1cc(N3C(=O)OCC3C(F)F)nc1-2)C(N)=O", "953936-095-R-J2-PDC spheroids with HUVEC/MSC, viability", "21.7%"]
]}

Value lookup for viability, T/C; key = CCN1CCN(Cc2ccc(Nc3ncc(F)c(-c4cc(F)c5nc(C)n(C(C)C)c5c4)n3)nc2)CC1 + CC(Nc1ncnc2nc[nH]c12)c1cc2cccc(Cl)c2c(=O)n1-c1ccccc1 97%

Now try Cn1ncnc1[C@H]1c2n[nH]c(=O)c3cc(F)cc(c23)N[C@@H]1c1ccc(F)cc1 + CC(Nc1ncnc2nc[nH]c12)c1cc2cccc(Cl)c2c(=O)n1-c1ccccc1 . 90.2%

Now try CC(=O)c1c(C)c2cnc(Nc3ccc(N4CCNCC4)cn3)nc2n(C2CCCC2)c1=O + CC(Nc1ncnc2nc[nH]c12)c1cc2cccc(Cl)c2c(=O)n1-c1ccccc1 . 85.6%
